- Tested on: TK-10 renal
- assay.overview: NCI-60 one-dose screen, 48 h
- study.conditions: 10 µM unless noted
This is part of a sample that, as a whole, favours compounds with a hit. Of some 83,000 tested, about 20% had one in any assay. Activity calls are given as the source filed them. Rule for the calls: active = growth percent below 10; inactive = the rest.
Outcomes you can answer with include only these: t = active, f = inactive

Check out these entries, answers already filled in.
compound	label.value
O=C(Nc1ccc(F)cc1)Nc1ccc(NC(=O)c2cc(Cl)nc3ccccc23)cc1	f
COc1cccc(-c2nc3occn3c2-c2ccnc(NCCNS(=O)(=O)c3ccc(C(F)(F)F)cc3)n2)c1	f
CCN(CC)c1ccc(C(=O)c2ccccc2)cc1	f

query: Each compound tested received a call. Report the one for N#Cc1cccc(-c2ccc3c(c2)NC(=O)/C3=C\c2ccc[nH]2)c1 .
result: f

query: And O=C1c2c(c3c4cccc(F)c4[nH]c3c3ccc4ccccc4c23)C(=O)N1O ?
result: f

---

- Test system: HOP-62 NSCLC
- assay.overview: NCI-60 one-dose screen, 48 h
- study.conditions: 10 µM unless noted
Compounds without any hit were thinned out: in the full panel of roughly 83,000, 20% have a hit. The source made the active and inactive calls. The calls were made as follows: active = growth percent below 10; inactive = the rest.
Outcomes you can answer with include only these: yes (1) (active), no (0) (inactive)

Check out these entries, answers already filled in.
molecule	label.value
Nc1n[nH]c2cccc(C#Cc3cccc(C(=O)Nc4cccc(C(F)(F)F)c4)c3)c12	no (0)
COc1cccc(/C=N/NC(=O)c2cnn3c2NC(c2ccccc2)C3)c1Oc1ccccc1 (centres undefined)	no (0)
CCOC(=O)[C@@H](C)C[C@H](Cc1ccccc1)NC(=O)c1csc([C@@H](C[C@H](C(C)C)N(C)C(=O)[C@@H](NC(=O)[C@H]2C[C@H](O[Si](C)(C)C(C)(C)C)CCN2C)C(C)C)OC(C)=O)n1	yes (1)

Please find the next molecule below.
query: Each molecule tested received a call. Report the one for Cc1nc(N)nc(N[C@@H](C)c2nc3cccc(NCc4ccc(C(=O)NO)cc4)c3c(=O)n2-c2ccccc2)n1 .
result: no (0)

---

- Tested on: U251 CNS
- assay.overview: NCI-60 one-dose screen, 48 h
- study.conditions: 10 µM unless noted
The panel holds about 83,000 compounds, 20% with a hit somewhere; the sample as a whole holds those more often. The source made the active and inactive calls. Rule for the calls: active = growth percent below 10; inactive = the rest.
Outcomes you can answer with include only these: active, inactive

compound	label.value
CCOC(=O)c1cc(C(=O)c2ccc(OC)c(OC)c2)n2c1ccc1ccccc12	inactive

query: Each compound tested received a call. Report the one for Cn1c(N2NC(=O)C(N=Nc3ccc(S(N)(=O)=O)cc3)C2=O)nc(-c2ccco2)c(C#N)c1=O (centres undefined) .
result: inactive

query: And O=C1c2c(c3c4cccc(F)c4[nH]c3c3ccc4ccccc4c23)C(=O)N1O ?
result: inactive

query: And O=C1/C=C/[C@@H](O)[C@@H]2C[C@@H](O)C[C@H]2/C=C/CCC[C@H](CCc2cccc3ccccc23)O1 ?
result: inactive

query: And CN1CCN(C(=O)[C@]23CCC(C)(C)C[C@H]2C2=CC[C@@H]4[C@@]5(C)C/C(=C/c6ccncc6)C(=O)C(C)(C)[C@@H]5CC[C@@]4(C)[C@]2(C)CC3)CC1 ?
result: inactive

query: And CCCCC/C=C/C(C)=C/C1CC(C)C/C=C/CCC(O)C(OC(N)=O)CCC(C)CC(O)C(C)C(=O)O1 (centres undefined) ?
result: inactive

query: And O=C(CSc1nc2sc3c(c2c(=O)n1-c1ccc(Cl)cc1)CCCC3)Nc1nc(-c2cccc(Br)c2)cs1 ?
result: inactive

---

- Test system: HT29 colon
- assay.overview: NCI-60 one-dose screen, 48 h (100 = growth as untreated, 0 = no growth, -100 = all killed)
- study.conditions: 10 µM unless noted
Compounds without any hit were thinned out: in the full panel of roughly 83,000, 20% have a hit.
Assign class by growth: not lower than 30% means satisfied; lower than 30% means not satisfied.

Check out these entries, answers already filled in.
compound	target.entity	label.value
Cn1ccc2c1CC1CN(Cc3ccco3)C(=O)C1C2C(=O)O (centres undefined)	HT29 colon	satisfied
CN1CCN(C(=O)[C@]23CCC(C)(C)C[C@H]2C2=CC[C@@H]4[C@@]5(C)C/C(=C/c6cccnc6)C(=O)C(C)(C)[C@@H]5CC[C@@]4(C)[C@]2(C)CC3)CC1	HT29 colon	satisfied
COc1ccc(-c2cnc3c(-c4cccc5cnccc45)cnn3c2)cc1	HT29 colon	satisfied
NC1=NN=C(N)C1=Cc1cc2ccccc2n2nnnc12	HT29 colon	satisfied
O=C(/C(=C\c1ccc([N+](=O)[O-])cc1)S(=O)Cc1ccc(Cl)cc1)c1ccc(Cl)cc1 (centres undefined)	HT29 colon	not satisfied
CCCCCC(=O)Oc1ccc(/C(=C(\C)c2ccccc2)c2ccc(OCCN3CCCCC3)cc2)cc1	HT29 colon	not satisfied

query: Kindly determine if growth recorded for O=C(Nc1ccc(F)cc1)Nc1ccc(NC(=O)c2cc(Cl)nc3ccccc23)cc1 is above or exactly 30%.
result: satisfied

query: And CC(=O)OC[C@]12CC[C@@H](C(=O)CBr)[C@@H]1[C@H]1CC[C@@H]3[C@@]4(C)CC[C@H](OC(C)=O)C(C)(C)[C@@H]4CC[C@@]3(C)[C@]1(C)CC2 ?
result: satisfied

query: And Cc1ccc(S(=O)(=O)NNC(=O)/C(=C\c2ccc(Cl)cc2)c2nc3ccccc3s2)cc1 ?
result: satisfied

query: And O=C(NCCc1ccccc1)Nc1ccc2cc3ccc(NC(=O)NCCc4ccccc4)cc3nc2c1 ?
result: satisfied

query: And COc1ccc2c(c1)C(=O)CC(c1ccccc1OC)O2 (centres undefined) ?
result: satisfied

query: And Cn1ccnc1C(=O)/C=C/c1ccc(CC(=O)Nc2ccc(Cl)cc2)cc1 ?
result: not satisfied

query: And CN(C)CC(O)c1ccc(/C=C/c2ccc(Cl)cc2)cc1 (centres undefined) ?
result: not satisfied

query: And Cc1cc(Cl)nc(N(CCNc2ccnc3cc(Cl)ccc23)Cc2ccccn2)n1 ?
result: not satisfied

query: And O=C(Nc1ncc(Cc2cc(Cl)ccc2Cl)s1)c1cccs1 ?
result: not satisfied

query: And CCN(CC)CC[n+]1cc2cc(OC)c(OC)cc2c2ccc3cc4c(cc3c21)OCO4 ?
result: not satisfied

query: And C=C1C(=O)O[C@H]2[C@H]1CC/C(CNC(=O)/C=C/c1ccccc1)=C\CC[C@@]1(C)O[C@@H]21 ?
result: not satisfied

query: And CNCCn1c(=O)c2cc(OC)c(OC)cc2c2ccc3cc4c(cc3c21)OCO4 ?
result: not satisfied

query: And O=S(=O)(NCCNc1nccc(-c2c(-c3cccc(F)c3)nc3sccn23)n1)c1ccc(Br)cc1 ?
result: not satisfied

---

- System: MDA-MB-231 breast
- assay.overview: NCI-60 one-dose screen, 48 h
- study.conditions: 10 µM unless noted
This is part of a sample that, as a whole, favours compounds with a hit. Of some 83,000 tested, about 20% had one in any assay. Active and inactive are the calls of the source. The calls were made as follows: active = growth percent below 10; inactive = the rest.
Outcomes you can answer with include only these: true = active, false = inactive

compound	label.value
C[C@H]1[C@H](C)CC[C@]2(C(=O)Nc3ccc4ncccc4c3)CC[C@]3(C)C(=CC[C@@H]4[C@@]5(C)CCCNC(C)(C)[C@@H]5CC[C@]43C)[C@H]12	true
CCOC(=O)c1ccc2c(c1)ncn2-c1ccc(NC(=O)Nc2cccc(C)c2)cc1	false
COc1cc(C2C3=C(COC3=O)N(CCO)c3cc4c(cc32)OCO4)cc(OC)c1OC (stereo not drawn)	true

Please find the next compound below.
query: Each compound tested received a call. Report the one for COc1c(Cl)c2c(c(OC)c1OC)-c1ccc(SC)c(=O)cc1[C@@H](NC(=O)OCC(F)(F)F)CC2 .
result: true

---

- Tested on: MOLT-4 leukemia
- assay.overview: NCI-60 one-dose screen, 48 h (100 = growth as untreated, 0 = no growth, -100 = all killed)
- study.conditions: 10 µM unless noted
The panel holds about 83,000 compounds, 20% with a hit somewhere; the sample as a whole holds those more often.
Assign class by growth: not lower than 80% means t; lower than 80% means f.

compound	label.value
O=C(/C=C(O)/C=C/c1ccc(SC(F)(F)F)cc1)/C=C/c1ccc(SC(F)(F)F)cc1	f
COc1cccc(/C=N/NC(=O)c2cnn3c2NC(c2ccccc2)C3)c1Oc1ccccc1 (configuration not stated)	f
N#CC1C(C#N)C(C(=O)c2ccc(Br)cc2)N2c3ccccc3C=CC12 (configuration not stated)	t
CC(Sc1nc2ccccc2c(=O)n1CCc1ccc(S(N)(=O)=O)cc1)C(=O)Nc1ccc(Cl)cc1 (configuration not stated)	f
O=C(NCCc1ccccc1)Nc1ccc2cc3ccc(NC(=O)NCCc4ccccc4)cc3nc2c1	f
CC(=O)N1c2ccccc2NC2=C(C(=O)NC2(C)C)C1c1ccco1 (configuration not stated)	t

Please find the next compound below.
query: Kindly determine if growth recorded for O=C(c1nc2ccccc2[nH]1)C1C(c2ccc(Br)cc2)C2CC3CCCC[C@H]3N2[C@@]12C(=O)Nc1cc(Cl)ccc12 (some centres not stated) is above or exactly 80%.
result: f
